- Target Entity: BCL-2 (Homo sapiens, UniProt P10415)
- Sequence (P10415 whole entry): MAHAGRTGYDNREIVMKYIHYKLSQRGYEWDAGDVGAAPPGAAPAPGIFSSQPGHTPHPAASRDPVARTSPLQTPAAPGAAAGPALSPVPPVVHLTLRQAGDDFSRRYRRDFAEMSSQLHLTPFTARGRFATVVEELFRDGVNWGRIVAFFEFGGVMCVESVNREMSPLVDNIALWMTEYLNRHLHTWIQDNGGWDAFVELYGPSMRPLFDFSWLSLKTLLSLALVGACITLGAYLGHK
- Procedure Summary: HTRF BCL-2/BAK assay (Cisbio)
- Test Parameters: recombinant human Tag1-BCL-2 2 nM, Tag2-BAK 10 nM
Kindly state IC50 for each of the entries shown.

Below are worked cases with known answers.
[
  {
    "Compound": "O=C(NS(=O)(=O)c1cccc([N+](=O)[O-])c1)c1ccc(N2CCN(C3CCCc4cccc(-c5ccsc5)c43)CC2)cc1Oc1cnc2[nH]ccc2c1 (centres unmarked)",
    "IC50": "0.2 to 2 µM"
  },
  {
    "Compound": "O=C(NS(=O)(=O)c1ccc(NCCN2CCC3(CC2)COC3)c([N+](=O)[O-])c1)c1ccc(N2CCN([C@@H]3CCCCc4c(Br)cc(F)cc43)CC2)cc1Oc1cnc2[nH]ccc2c1",
    "IC50": "< 0.02 µM"
  },
  {
    "Compound": "CCOC(=O)CCN1CCC2(CC1)CC(CNc1ccc(S(=O)(=O)NC(=O)c3ccc(N4CCN([C@@H]5CCCCc6c(Cl)cccc65)CC4)cc3Oc3cnc4[nH]ccc4c3)cc1[N+](=O)[O-])C2",
    "IC50": "< 0.02 µM"
  },
  {
    "Compound": "O=C(NS(=O)(=O)c1ccc(NCC2CC3(CCN(S(=O)(=O)C4CC4)CC3)C2)c([N+](=O)[O-])c1)c1ccc(N2CCN([C@@H]3CCCCc4c(Cl)cccc43)CC2)cc1Oc1cnc2[nH]ccc2c1",
    "IC50": "< 0.02 µM"
  }
]

Here is another compound to look at.
Exercise: I'd like to know its IC50. The compound in question is O=C(NS(=O)(=O)c1ccc(NCC2CCC3(CC2)COC3)c([N+](=O)[O-])c1)c1ccc(N2CCN([C@@H]3CCCCc4c(Br)cc(F)cc43)CC2)cc1Oc1cnc2[nH]ccc2c1
Key: < 0.02 µM

---

- Target Entity: BCL-2 (Homo sapiens)
- Construct: purchased Cisbio 63ADK000CB01PEG
- Procedure Summary: HTRF BCL-2/BAK assay (Cisbio)
- Format: binding
- Test Parameters: recombinant human Tag1-BCL-2 2 nM, Tag2-BAK 10 nM
Kindly state IC50 for each of the entries shown.

Respectfully, I request IC50 for each entry included below.
1. O=C(NS(=O)(=O)c1ccc(NCC2CCC3(CC2)COC3)c([N+](=O)[O-])c1)c1ccc(N2CCN([C@@H]3CCCCc4c3cccc4[N+](=O)[O-])CC2)cc1Oc1cnc2[nH]ccc2c1
2. O=C(NS(=O)(=O)c1ccc(NCCN2CCN(C3COC3)CC2)c([N+](=O)[O-])c1)c1ccc(N2CCN([C@@H]3CCCCc4c(Cl)cccc43)CC2)cc1Oc1cnc2[nH]ccc2c1
3. CC(=O)N1CCC2(CC1)CC(CNc1ccc(S(=O)(=O)NC(=O)c3ccc(N4CCN([C@@H]5CCCCc6c(Cl)cccc65)CC4)cc3Oc3cnc4[nH]ccc4c3)cc1[N+](=O)[O-])C2

Key:
1: < 20 nM; 2: < 20 nM; 3: < 20 nM

---

Kindly state pIC50 for each of the entries shown.
- Target Entity: BCL-2 (Homo sapiens)
- Procedure Summary: HTRF BCL-2/BAK assay (Cisbio)
- Test Parameters: recombinant human Tag1-BCL-2 2 nM, Tag2-BAK 10 nM
pIC50: −log10 of the molar value.

Below are worked cases with known answers.
[
  {
    "Compound": "CS(=O)(=O)Nc1cccc2c1CCCCC2N1CCN(c2ccc(C(=O)NS(=O)(=O)c3ccc(NCC4CCOCC4)c([N+](=O)[O-])c3)c(Oc3cnc4[nH]ccc4c3)c2)CC1 (centres unmarked) [Compound 56]",
    "Target Entity": "BCL-2 (Homo sapiens)",
    "Experimental Value": "6.70 to 7.70"
  },
  {
    "Compound": "O=C(O)CCN1CCC2(CC1)CC(CNc1ccc(S(=O)(=O)NC(=O)c3ccc(N4CCN([C@@H]5CCCCc6c(Cl)cccc65)CC4)cc3Oc3cnc4[nH]ccc4c3)cc1[N+](=O)[O-])C2 [Compound 126]",
    "Target Entity": "BCL-2 (Homo sapiens)",
    "Experimental Value": "> 7.70"
  },
  {
    "Compound": "O=C(NS(=O)(=O)c1ccc(NCC2CCOCC2)c([N+](=O)[O-])c1)c1ccc(N2CCN([C@@H]3CCCCc4c3cccc4[N+](=O)[O-])CC2)cc1Oc1cnc2[nH]ccc2c1 [Compound 73]",
    "Target Entity": "BCL-2 (Homo sapiens)",
    "Experimental Value": "> 7.70"
  },
  {
    "Compound": "CN1CCC(CNc2ccc(S(=O)(=O)NC(=O)c3ccc(N4CCN([C@@H]5CCCCc6c(Br)cccc65)CC4)cc3Oc3cnc4[nH]ccc4c3)cc2[N+](=O)[O-])CC1 [Compound 69]",
    "Target Entity": "BCL-2 (Homo sapiens)",
    "Experimental Value": "> 7.70"
  },
  {
    "Compound": "CC(CO)c1cccc2c1CCCCC2N1CCN(c2ccc(C(=O)NS(=O)(=O)c3ccc(NCC4CCOCC4)c([N+](=O)[O-])c3)c(Oc3cnc4[nH]ccc4c3)c2)CC1 (centres unmarked) [Compound 61]",
    "Target Entity": "BCL-2 (Homo sapiens)",
    "Experimental Value": "> 7.70"
  },
  {
    "Compound": "CC(C)c1cccc2c1CCCCC2N1CCN(c2ccc(C(=O)NS(=O)(=O)c3ccc(NCC4CCOCC4)c([N+](=O)[O-])c3)c(Oc3cnc4[nH]ccc4c3)c2)CC1 (centres unmarked) [Compound 51]",
    "Target Entity": "BCL-2 (Homo sapiens)",
    "Experimental Value": "> 7.70"
  },
  {
    "Compound": "O=C(NS(=O)(=O)c1ccc(NCC2CCOCC2)c([N+](=O)[O-])c1)c1ccc(N2CC3(CCN(C4CCCCc5ccccc54)CC3)C2)cc1Oc1cnc2[nH]ccc2c1 (centres unmarked) [Compound 97]",
    "Target Entity": "BCL-2 (Homo sapiens)",
    "Experimental Value": "6.70 to 7.70"
  },
  {
    "Compound": "O=C1CCC(N2CCN(c3ccc(C(=O)NS(=O)(=O)c4ccc(NCC5CCOCC5)c([N+](=O)[O-])c4)c(Oc4cnc5[nH]ccc5c4)c3)CC2)c2ccccc2N1 (centres unmarked) [Compound 28]",
    "Target Entity": "BCL-2 (Homo sapiens)",
    "Experimental Value": "6.70 to 7.70"
  },
  {
    "Compound": "Nc1cccc2c1CCCCC2N1CCN(c2ccc(C(=O)NS(=O)(=O)c3ccc(NCC4CCOCC4)c([N+](=O)[O-])c3)c(Oc3cnc4[nH]ccc4c3)c2)CC1 (centres unmarked) [Compound 58]",
    "Target Entity": "BCL-2 (Homo sapiens)",
    "Experimental Value": "> 7.70"
  },
  {
    "Compound": "CN1CCN(CCNc2ccc(S(=O)(=O)NC(=O)c3ccc(N4CCN(C5CCCCc6c(Cl)cccc65)CC4)cc3Oc3cnc4[nH]ccc4c3)cc2[N+](=O)[O-])CC1 (centres unmarked) [Compound 32]",
    "Target Entity": "BCL-2 (Homo sapiens)",
    "Experimental Value": "> 7.70"
  }
]

Exercise: I'd like to know its pIC50. The compound in question is O=C(NS(=O)(=O)c1ccc(NCC2CCOCC2)c([N+](=O)[O-])c1)c1ccc(N2CCN(C3CCCOc4ccccc43)CC2)cc1Oc1cnc2[nH]ccc2c1 (centres unmarked) [Compound 36]
Key: > 7.70

---

- Target Entity: BCL-XL (Homo sapiens, UniProt Q07817)
- Sequence (Q07817 whole entry): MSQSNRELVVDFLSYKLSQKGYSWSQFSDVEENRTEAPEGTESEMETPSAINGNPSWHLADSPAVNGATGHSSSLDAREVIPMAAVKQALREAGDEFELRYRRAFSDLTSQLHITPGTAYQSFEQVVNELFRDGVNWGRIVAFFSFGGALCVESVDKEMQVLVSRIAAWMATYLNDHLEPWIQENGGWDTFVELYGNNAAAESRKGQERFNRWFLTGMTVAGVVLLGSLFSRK
- Procedure Summary: HTRF BCL-XL/BAK assay (Cisbio)
- Test Parameters: recombinant human Tag1-BCL-XL 2 nM, Tag2-BAK 5 nM
pIC50: −log10 of the molar value.
Recorded Endpoint: pIC50

Respectfully, I request pIC50 for each entry included below.
1. O=C(NS(=O)(=O)c1ccc(NCC2CCOCC2)c([N+](=O)[O-])c1)c1ccc(N2CCN(C3CCCCc4c(Br)cccc43)CC2)cc1Oc1cnc2[nH]ccc2c1 (stereo not shown)
2. O=C(NS(=O)(=O)c1ccc(NCC2CC3(CCN(CCF)CC3)C2)c([N+](=O)[O-])c1)c1ccc(N2CCN([C@@H]3CCCCc4c(Cl)cccc43)CC2)cc1Oc1cnc2[nH]ccc2c1
3. O=C(NS(=O)(=O)c1ccc(NCC2CCC3(CC2)COC3)c([N+](=O)[O-])c1)c1ccc(N2CCN([C@@H]3CCCCc4c(Br)cc(F)cc43)CC2)cc1Oc1cnc2[nH]ccc2c1
4. O=C(NS(=O)(=O)c1ccc(NCC2CCOCC2)c([N+](=O)[O-])c1)c1ccc(N2CCN(C3CCCCc4c(-c5ccn[nH]5)cccc43)CC2)cc1Oc1cnc2[nH]ccc2c1 (stereo not shown)
5. O=C(NS(=O)(=O)c1ccc(NCC2CCOCC2)c([N+](=O)[O-])c1)c1ccc(N2CCN(C3CCCCc4c(-c5cccnc5)cccc43)CC2)cc1Oc1cnc2[nH]ccc2c1 (stereo not shown)
6. O=C(NS(=O)(=O)c1ccc(NCC2CCOCC2)c([N+](=O)[O-])c1)c1ccc(N2CCN([C@@H]3CCCCc4c(Br)cc(F)cc43)CC2)cc1Oc1cnc2[nH]ccc2c1
7. Cc1ccc(S(=O)(=O)N2CCc3ccccc3C(N3CCN(c4ccc(C(=O)NS(=O)(=O)c5ccc(NCC6CCOCC6)c([N+](=O)[O-])c5)c(Oc5cnc6[nH]ccc6c5)c4)CC3)C2)cc1 (stereo not shown)

Key:
6.70 to 7.70
> 7.70
5.70 to 6.70
< 5.70
5.70 to 6.70
5.70 to 6.70
5.70 to 6.70

Respectfully, I request pIC50 for each entry included below.
1. CN1CC2CC1CN2CCNc1ccc(S(=O)(=O)NC(=O)c2ccc(N3CCN(C4CCCCc5c(Cl)cccc54)CC3)cc2Oc2cnc3[nH]ccc3c2)cc1[N+](=O)[O-] (stereo not shown)
2. CC(=O)N1CCN(CCNc2ccc(S(=O)(=O)NC(=O)c3ccc(N4CCN([C@@H]5CCCCc6c(Br)cccc65)CC4)cc3Oc3cnc4[nH]ccc4c3)cc2[N+](=O)[O-])CC1

Key:
> 7.70
> 7.70

Exercise: I'd like to know its pIC50. The compound in question is CC(=O)N1CCC2(CC1)CC(CNc1ccc(S(=O)(=O)NC(=O)c3ccc(N4CCN([C@@H]5CCCCc6c(Cl)cccc65)CC4)cc3Oc3cnc4[nH]ccc4c3)cc1[N+](=O)[O-])C2
Key: 6.70 to 7.70
